The measured values listed here are drawn from patent US20230134571A1.

- experimental-system: HIV Env of isolate SC422661.8 (clade B) (HIV)
- assay-summary: cell-based or functional assay
The following binders are shown together with reported IC50 (µg/ml) with constrains values.
readout: IC50 (µg/ml) with constrains (µg/mL)

1) ePGDM9 (antibody, V domains shown) VH: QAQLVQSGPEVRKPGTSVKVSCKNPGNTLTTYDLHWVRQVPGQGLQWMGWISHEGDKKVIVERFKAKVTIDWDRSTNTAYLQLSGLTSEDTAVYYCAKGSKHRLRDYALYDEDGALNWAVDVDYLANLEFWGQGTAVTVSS VL: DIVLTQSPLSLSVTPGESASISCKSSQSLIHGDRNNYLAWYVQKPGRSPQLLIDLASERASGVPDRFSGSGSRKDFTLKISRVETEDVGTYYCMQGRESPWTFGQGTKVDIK | 1.33
2) ePGDM5 (antibody, V domains shown) VH: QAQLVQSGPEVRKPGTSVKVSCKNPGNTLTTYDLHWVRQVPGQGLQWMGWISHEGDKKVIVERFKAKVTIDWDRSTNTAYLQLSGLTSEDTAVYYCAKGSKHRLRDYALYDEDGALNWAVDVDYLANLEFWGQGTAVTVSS VL: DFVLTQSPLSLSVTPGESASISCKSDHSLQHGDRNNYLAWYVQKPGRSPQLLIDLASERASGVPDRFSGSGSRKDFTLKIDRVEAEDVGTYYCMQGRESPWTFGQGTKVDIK | 1.33
3) PGDM1400 (antibody, V domains shown) VH: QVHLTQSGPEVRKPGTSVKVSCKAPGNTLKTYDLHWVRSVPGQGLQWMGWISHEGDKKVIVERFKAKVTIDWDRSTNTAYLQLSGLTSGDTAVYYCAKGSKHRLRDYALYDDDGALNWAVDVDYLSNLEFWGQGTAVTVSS VL: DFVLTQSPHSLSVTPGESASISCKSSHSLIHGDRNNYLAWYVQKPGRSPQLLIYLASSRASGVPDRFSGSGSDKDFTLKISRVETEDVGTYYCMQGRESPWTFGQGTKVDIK | 15.7
